Listing of entries alongside the reported self-cleavage.
B1: HDV Ribozyme (parent)
chain: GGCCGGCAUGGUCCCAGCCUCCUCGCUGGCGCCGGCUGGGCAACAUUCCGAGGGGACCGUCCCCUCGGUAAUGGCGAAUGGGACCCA

Variants of: B1
Experiment: self-cleavage, relative activity (ratio to wild type); higher = more cleavage; co-transcriptional
resultType: self-cleavage

residueChange | resultType | value
C22A A70U | self-cleavage | 0.222
C48A U60G | self-cleavage | 0.886
U60G G80U | self-cleavage | 0.277
G1A A8G | self-cleavage | 0.166
A43G U60C | self-cleavage | 0.415
A45G U60A | self-cleavage | 0.866
A56G A70C | self-cleavage | 0.935
G68C U72C | self-cleavage | 0.38
C3A A78G | self-cleavage | 0.119
G31A C66A | self-cleavage | 0.546
G1U G38U | self-cleavage | 0.295
C58G U72C | self-cleavage | 0.369
U23C C30U | self-cleavage | 0.755
G2U C75U | self-cleavage | 0.021
C4U G38A | self-cleavage | 0.0978
C32G A45G | self-cleavage | 0.0811
U27C G53A | self-cleavage | 0.696
C18U U47G | self-cleavage | 0.608
A8C U20G | self-cleavage | 0.175
G2C C14U | self-cleavage | 0.0504
A8C U79A | self-cleavage | 0.506
G1U C19U | self-cleavage | 0.28
C22G C26G | self-cleavage | 0
G35U C36G | self-cleavage | 0.104
G35U A78C | self-cleavage | 0.133
C24G U79C | self-cleavage | 0.165
C44A C75U | self-cleavage | 0.218
A16C C48A | self-cleavage | 0.987
G17C U27C | self-cleavage | 0
A16C C21G | self-cleavage | 0.119
C19G G34A | self-cleavage | 0.248
C75G G81U | self-cleavage | 0.133
C44G G50U | self-cleavage | 0.767
U9G C58U | self-cleavage | 1.2
A43C U46C | self-cleavage | 0.435
C3G G81C | self-cleavage | 0.0831
G6C G35U | self-cleavage | 0.256
A16C C61U | self-cleavage | 0.798
U12C C41U | self-cleavage | 0.415
C7A U12G | self-cleavage | 0.237

Data provenance: the RNAGym collection of RNA variant scans (doi:10.7554/elife.80360)
